The compounds listed here are annotated with their GI50.
# System: NCI/ADR-RES
# Protocol Description: NCI tumour cell line growth inhibition, 48 h
Active and inactive are the calls of the source. Rule as the data show it: active = GI50 up to about 1.1 µM and inactive = higher.
Parameter: GI50

Compound	Result
CCCCCCCCCCCCCCCCCCNc1nc(=O)n(C2CC(O)C(COP(=O)(O)O)O2)cc1F (stereo not drawn)	> 35.6 µM (inactive)
COc1cc(-c2oc3c(OC)c(O)cc(O)c3c(=O)c2OC)ccc1O	10.8 µM (inactive)
COc1ccc2c(c1OC)C(=O)O[C@@H]2[C@H]1c2cc3c(cc2CCN1C)OCO3	> 100 µM (inactive)
COC(=O)c1c(OC(C)=O)ccc2c1c1c(OC(C)=O)c3ccccc3c(OC(C)=O)c1n2Cc1cc(OC)cc(OC)c1	5.78 µM (inactive)
O=C(/C=C/c1ccc2c(c1)OCO2)NCCc1ccco1	57.3 µM (inactive)
O=c1[nH]nc(Cc2ccccc2)n1/N=C/c1ccccc1Cl	> 100 µM (inactive)
C[C@@H]1CC[C@@]2(OC1)O[C@H]1[C@@H](O)[C@H]3[C@@H]4CC[C@H]5C[C@@H](O[C@@H]6O[C@H](CO)[C@H](O[C@@H]7O[C@H](CO)C(O)[C@H](O[C@@H]8OC[C@@H](O)[C@H](O)[C@H]8O)[C@H]7O[C@@H]7O[C@H](CO)[C@H](O)[C@H](O[C@@H]8O[C@H](CO)[C@@H](O)[C@H](O)[C@H]8O)[C@H]7O)[C@H](O)[C@H]6O)[C@H](O)C[C@]5(C)[C@H]4CC[C@]3(C)[C@H]1[C@@H]2C (stereo partly drawn) [DIGITONIN]	3.89 µM (inactive)
CCP(=O)(CC)C(Cl)(Cl)C(=O)NC	> 100 µM (inactive)
